These entries and their values trace back to PubChem BioAssay AID360.

- tested target: Lysosomal acid glucosylceramidase (Homo sapiens) (UniProt P04062)
- Sequence (P04062 whole entry, looked up): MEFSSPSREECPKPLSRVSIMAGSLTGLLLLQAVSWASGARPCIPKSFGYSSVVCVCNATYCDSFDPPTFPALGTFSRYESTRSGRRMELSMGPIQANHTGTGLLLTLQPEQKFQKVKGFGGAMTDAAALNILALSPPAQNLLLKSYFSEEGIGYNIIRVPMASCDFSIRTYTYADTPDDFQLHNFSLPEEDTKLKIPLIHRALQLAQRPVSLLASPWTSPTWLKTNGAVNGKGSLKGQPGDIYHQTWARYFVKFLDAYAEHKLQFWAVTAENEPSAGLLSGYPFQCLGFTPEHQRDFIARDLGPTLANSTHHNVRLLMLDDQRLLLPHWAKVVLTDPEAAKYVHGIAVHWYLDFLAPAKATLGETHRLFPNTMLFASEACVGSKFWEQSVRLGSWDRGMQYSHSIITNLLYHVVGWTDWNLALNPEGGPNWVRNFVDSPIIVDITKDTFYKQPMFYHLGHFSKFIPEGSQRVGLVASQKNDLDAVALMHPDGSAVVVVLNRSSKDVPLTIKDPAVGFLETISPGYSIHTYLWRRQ
- protocol text: Glucocerebrosidase
- details: purified enzyme, resorufin glucoside fluorescence (screen aimed at inhibitors), 20 min
The campaign covered roughly 48,000 compounds. About 550 (1.1%) were called active. Roughly 4% stayed inconclusive and do not appear here. Rule as the data show it: active = potency below about 15 µM; inconclusive = mostly about 16 µM to 33 µM; inactive = weaker than that. Only a selection was taken, and actives are over-represented in it overall.
The categories you may choose from are true for active, false for inactive

Answered examples (8):
| molecule | label class |
| --- | --- |
| CN(Cc1ccccc1)Cc1ccccc1F | false |
| O=C(Nc1cccc(NC(=O)N2CCN(c3ccccc3)CC2)c1)N1CCN(c2ccccc2)CC1 | false |
| Cc1ccc2nc(S(=O)(=O)O)[nH]c2c1 | false |
| CCOc1ccc(CNC(=O)C2CCC(=O)N2C2CCCC2)cc1OC (centres undefined) | false |
| CCOc1ccccc1C1C(C(=O)OC)=CN(C)C=C1C(=O)OC | false |
| CCOc1ccccc1C(=O)NCCCn1ccnc1 | false |
| CCCCC(=O)Nc1ccc(C(=O)NCCCn2ccnc2)cc1 | true |
| O=C(O)C1CCCN1S(=O)(=O)c1ccc2c(c1)CCC2 (centres undefined) | false |

Entry COc1ccc(Cl)cc1NC(=O)C1CC(=O)N(c2ccc(F)cc2)C1 (centres undefined) : call = ?
false

Call for entry "CCn1c2c(c3ccc(OC)cc31)CCCC2=O" :
false

Status in this test for "COc1ccc(S(=O)(=O)N2CCCC2)c(C)c1C" ?
false

###

Would you kindly list Potency for each of these compounds?
- tested target: Lysosomal acid glucosylceramidase (Homo sapiens)
- protocol text: Glucocerebrosidase;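 also: potency is read from the fitted curve at half-maximal effect; the screen sought inhibitors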
- details: purified enzyme, resorufin glucoside fluorescence (screen aimed at inhibitors), 20 min
Screen size: about 48,000 compounds; about 550 (1.1%) were called active. About 4% were inconclusive and are not listed. The list comes from a sample in which actives are over-represented; it also holds close analogues and randomly drawn compounds.

Worked cases, answers included:
| compound | reported metric | result |
| --- | --- | --- |
| CCC(=O)Nc1ccc(C(=O)CSc2nnc(CNc3ccc(Cl)cc3)o2)cc1OC | Potency | > 76.9 µM (inactive) |
| c1ccc(-c2cc(-c3nnc4sc(-c5ccccn5)nn34)[nH]n2)cc1 | Potency | > 76.9 µM (inactive) |
| CCOC(=O)c1sc(N(Cc2ccccc2)C(=O)CN2C(=O)CN(C)C2=O)nc1C | Potency | > 76.9 µM (inactive) |
| O=C(CSc1nnc(-c2cnccn2)n1Cc1ccco1)c1ccc(Cl)c(Cl)c1 | Potency | > 76.9 µM (inactive) |
| N#Cc1c(N)sc2c1CCN(C(=O)OCc1ccccc1)C2 | Potency | > 76.9 µM (inactive) |
| O=C(CSc1nnc(-c2ccco2)n1CC1CCCO1)c1ccccc1 (stereo unspecified) | Potency | > 76.9 µM (inactive) |
| CC(Oc1ccc(Cl)cc1)C(=O)Nc1ncccn1 (stereo unspecified) | Potency | > 76.9 µM (inactive) |
| Cc1ccc(C)c(NS(=O)(=O)c2cc(Br)cnc2N)c1 | Potency | 15.2 µM (active) |
| CCc1ccccc1N(CC(=O)N1CCN(c2ccccc2F)CC1)S(C)(=O)=O | Potency | > 76.9 µM (inactive) |
| O=S(=O)(c1cccc(S(=O)(=O)N2CCC(n3nnc4ccccc43)CC2)c1)N1CCCCC1 | Potency | 10.5 µM (active) |

Query (compound): "CCn1c(COc2ccccc2)nnc1SCC(=O)Nc1ccc2c(c1)OCCO2" ; field requested: Potency
> 76.9 µM (inactive)

###

- tested target: Lysosomal acid glucosylceramidase (Homo sapiens)
- protocol text: Glucocerebrosidase;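 also: potency is read from the fitted curve at half-maximal effect; the screen sought inhibitors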
- details: purified enzyme, resorufin glucoside fluorescence (screen aimed at inhibitors), 20 min
About 550 (1.1%) of roughly 48,000 compounds were called active. Another 4% or so got no clear call; they are omitted. Cut-off read from the data, not from the text of the source: active = potency below about 15 µM; inconclusive = mostly about 16 µM to 33 µM; inactive = weaker than that. This excerpt belongs to a sample that is enriched for actives.
Return exactly one item of 1 for active, -1 for inactive

| compound | label class |
| --- | --- |
| CC1CCCCN1CC(=O)NCc1ccc2c(c1)OCO2 (stereo unspecified) | -1 |
| CCCc1nnc(NC(=O)CN2C(=O)c3ccccc3S2(=O)=O)s1 | -1 |
| O=C(NCc1ccc(Cl)cc1)c1cc2c(nc3sccn32)s1 | 1 |
| COc1ccc2[nH]c(=O)c(CN(Cc3nnnn3CCc3ccccc3)CC3CCCO3)cc2c1 (stereo unspecified) | -1 |
| O=c1c2cc3c(=O)n(CC4CCCO4)c(=O)c3cc2c(=O)n1CC1CCCO1 (stereo unspecified) | -1 |
| O=C(NC1CCCCC1)c1ccc2c(=O)n(CC3CCCO3)c(=O)[nH]c2c1 (stereo unspecified) | 1 |
| CCC(c1nnnn1Cc1ccco1)N(CCc1ccccc1)Cc1cc2ccc(OC)cc2[nH]c1=O (stereo unspecified) | 1 |
| CCOC(=O)CCC(=O)OCC(=O)NC(C)C1CC2CCC1C2 (stereo unspecified) | -1 |
| O=c1cc(Cn2nnc(-c3ccc(Cl)cc3)n2)nc2sccn12 | -1 |
| Fc1ccc(Cn2nnnc2C(c2cccs2)N2CCCCCC2)cc1 (stereo unspecified) | -1 |

Would you kindly look at the next entry?
Dear all, I need the recorded test outcome for "O=C(NCc1cn2ccsc2n1)Nc1ccc(Cl)cc1" , thank you.
-1

###

- tested target: Lysosomal acid glucosylceramidase (Homo sapiens) (UniProt P04062)
- protocol text: Glucocerebrosidase;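 also: potency is read from the fitted curve at half-maximal effect; the screen sought inhibitors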
- details: purified enzyme, resorufin glucoside fluorescence (screen aimed at inhibitors), 20 min
The whole screen tested about 48,000 compounds, of which about 550 (1.1%) were called active. Another 4% or so got no clear call; they are omitted. Rule as the data show it: active = potency below about 15 µM; inconclusive = mostly about 16 µM to 33 µM; inactive = weaker than that. The full list was thinned out, with actives kept by preference.
A correct response names exactly one class from 1 (active), -1 (inactive)

Record excerpt, results attached:
| compound | label class |
| --- | --- |
| Cc1ccc(C)n1-c1ccncc1 | -1 |
| O=C(Cn1c(-c2ccccn2)nc2ccccc21)NCCN1CCOCC1 | -1 |
| O=C(C1CCC(C(=O)N2CCCC2)CC1)N1CCCC1 (stereo not drawn) | -1 |
| Cc1cc(C)cc(N(C(C)C(=O)Nc2c(C)n(C)n(-c3ccccc3)c2=O)S(C)(=O)=O)c1 (stereo not drawn) | -1 |
| Cc1nc(SCC(=O)Nc2cc(C)on2)c2c(C)c(C)sc2n1 | -1 |

What did this assay record as the result for "COc1cccc(-c2nnc(N(C)C(=O)c3ccno3)s2)c1" ?
-1

Tell me the assay call for "O=c1[nH]nc(Cc2ccccn2)c2ccccc12" please.
-1

What outcome does the record of this test show for "CCOc1ccc(NC(=O)Nc2cc(C)on2)cc1" ?
-1

Outcome logged for "Cn1c(=O)[nH]c(=O)c2c1nc(N1CCCCCC1)n2CC(=O)c1ccccc1" in this assay:
-1

###

- tested target: Lysosomal acid glucosylceramidase (Homo sapiens) (UniProt P04062)
- protocol text: Glucocerebrosidase;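 also: potency is read from the fitted curve at half-maximal effect; the screen sought inhibitors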
- details: purified enzyme, resorufin glucoside fluorescence (screen aimed at inhibitors), 20 min
Among all 48,000 compounds or so, about 550 (1.1%) were called active. Roughly 4% stayed inconclusive and do not appear here. Rule as the data show it: active = potency below about 15 µM; inconclusive = mostly about 16 µM to 33 µM; inactive = weaker than that. This excerpt belongs to a sample that is enriched for actives.
# output must be one of active, inactive

Previously resolved entries follow.
| compound | label class |
| --- | --- |
| Cc1noc(C)c1C(=O)NC(C)c1ccc2c(c1)OCO2 (centres undefined) | inactive |
| COc1ccc(C2C3=C(CC(C)(C)CC3=O)Oc3ncn4nc(-c5cccnc5)nc4c32)cc1OC (centres undefined) | inactive |
| CCOC(=O)C1CCN(C(=O)Cn2cc(C#N)c3ccccc32)CC1 | inactive |
| COC(=O)Cn1cc(C(=O)c2cccs2)c2ccccc21 | inactive |
| O=C(NCCCNC(=O)NC1CCCCC1)NC1CCCCC1 | inactive |
| Cc1cc(N2CCCC2)n2nc(C)c(-c3ccccc3)c2n1 | active |
| O=C(C1=C(O)C(=O)N(Cc2ccccc2)C1c1cccnc1)c1ccco1 (centres undefined) | inactive |
| Cc1cc(C)c2c(n1)nn1c(N3CCOCC3)cc(C)nc21 | inactive |

So what was the verdict on "Cc1cc(-n2nc(C)cc2C)n2ncc(-c3ccccc3)c2n1" in this test?
inactive

Would you mind telling me which call this test gave "CCn1c(SCC(=O)Nc2cc(C)c(Cl)cc2OC)nnc1-c1ccco1" ?
inactive

Lab log entry: "O=C(COc1ccc(F)cc1)N(CC1=CCS(=O)(=O)C1)c1ccccc1" — outcome as called in the assay?
inactive

Status in this test for "CC1(C)CC(=O)C2=C(C1)NCN(CCCN1CCOCC1)C2" ?
inactive

So what was the verdict on "CC(C)NS(=O)(=O)c1ccc(CCC(=O)N2CCOCC2)cc1" in this test?
inactive

Look up the recorded call for "Cc1ccc(C2(c3ccc(C)cc3)NC(=O)N(Cc3c(C)noc3C)C2=O)cc1" in this test.
inactive
